Each entry below carries its recorded inhibition at 10 µM.
system: Recombinant human calpain I (Homo sapiens, UniProt P07384)
Construct: made in house
Sequence (P07384 whole entry): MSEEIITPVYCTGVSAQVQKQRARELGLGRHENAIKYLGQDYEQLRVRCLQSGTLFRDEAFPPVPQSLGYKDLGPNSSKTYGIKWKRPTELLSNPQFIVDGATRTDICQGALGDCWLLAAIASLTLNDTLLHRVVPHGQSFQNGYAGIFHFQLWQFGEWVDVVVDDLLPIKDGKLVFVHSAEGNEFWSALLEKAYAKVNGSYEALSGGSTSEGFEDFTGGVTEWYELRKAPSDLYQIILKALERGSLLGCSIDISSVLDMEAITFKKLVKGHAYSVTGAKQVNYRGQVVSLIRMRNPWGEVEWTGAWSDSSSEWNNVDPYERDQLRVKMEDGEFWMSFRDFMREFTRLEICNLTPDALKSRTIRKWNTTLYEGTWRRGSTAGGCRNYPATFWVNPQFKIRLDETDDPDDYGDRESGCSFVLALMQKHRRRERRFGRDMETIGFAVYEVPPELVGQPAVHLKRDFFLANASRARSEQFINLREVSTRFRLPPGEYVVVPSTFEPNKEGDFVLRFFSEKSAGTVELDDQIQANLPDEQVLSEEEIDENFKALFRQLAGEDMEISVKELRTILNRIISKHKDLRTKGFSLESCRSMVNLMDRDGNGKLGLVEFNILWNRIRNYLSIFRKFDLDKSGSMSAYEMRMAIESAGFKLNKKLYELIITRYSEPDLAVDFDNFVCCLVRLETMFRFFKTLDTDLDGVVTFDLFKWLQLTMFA
assayDetails: Inhibition of calpain I (Succ-Leu-Tyr-MNA hydrolysis)
Type: biochemical
conditionParameters: Tables 2-4; values in parentheses; at 10,000 nM
# include the unit after the value

Record excerpt, results attached:
1. O=C(NCCCO)C(=O)C(Cc1ccccc1)NC(=O)c1cc(C#Cc2ccccc2)nc2ccccc12 (centres unmarked)
94%
2. CC(C)CC(NC(=O)c1cc(C#Cc2ccccc2)nc2ccccc12)C(=O)C(=O)NCCOCCO (centres unmarked)
93%
3. O=C(NCc1ccncc1)C(=O)C(Cc1ccccc1)NC(=O)c1cc(C#Cc2ccccc2)nc2ccccc12 (centres unmarked)
98%
4. O=C(NCCC1=CCCCC1)C(=O)C(Cc1ccccc1)NC(=O)c1cc(C#Cc2ccccc2)nc2ccccc12 (centres unmarked)
89%
5. O=C(NCCNC(=O)C(=O)C(Cc1ccccc1)NC(=O)c1cc(C#Cc2ccccc2)nc2ccccc12)Nc1ccc(Br)cc1 (centres unmarked)
94%

Please examine the following record next.
Problem: Look up inhibition at 10 µM with Recombinant human calpain I (Homo sapiens, UniProt P07384) for this compound: O=C(NCc1cccnc1)C(=O)C(Cc1ccccc1)NC(=O)c1cc(C#Cc2ccccc2)nc2ccccc12 (centres unmarked)
Solution: 91%

====

system: Recombinant human calpain I (Homo sapiens, UniProt P07384)
Construct: made in house
assayDetails: Inhibition of calpain I (Succ-Leu-Tyr-MNA hydrolysis)
Type: biochemical
conditionParameters: Tables 2-4; values in parentheses; at 10,000 nM
reportedProperty: inhibition at 10 µM (%)
Return type: number; implicit unit %.

Record excerpt, results attached:
1. CC(C)(C)OC(=O)CCNC(=O)C(=O)C(Cc1ccccc1)NC(=O)c1cc(C#Cc2ccccc2)nc2ccccc12 (centres unmarked) [Example 107]
93
2. O=C(NC12CC3CC(CC(C3)C1)C2)C(=O)C(Cc1ccccc1)NC(=O)c1cc(C#Cc2ccccc2)nc2ccccc12 (centres unmarked) [Example 15]
41
3. O=C(NCCNS(=O)(=O)c1cccc([N+](=O)[O-])c1)C(=O)C(Cc1ccccc1)NC(=O)c1cc(C#Cc2ccccc2)nc2ccccc12 (centres unmarked) [Example 78]
88

Problem: Please report the recorded inhibition at 10 µM for O=C(NC1Cc2ccccc2C1)C(=O)C(Cc1ccccc1)NC(=O)c1cc(C#Cc2ccccc2)nc2ccccc12 (centres unmarked) [Example 55] .
Solution: 60

Problem: Input COc1ccc(CCNC(=O)C(=O)C(Cc2ccccc2)NC(=O)c2cc(C#Cc3ccccc3)nc3ccccc23)cc1OC (centres unmarked) [Example 41]
Solution: 88

Problem: Input O=C(NC(CO)Cc1ccccc1)C(=O)C(Cc1ccccc1)NC(=O)c1cc(C#Cc2ccccc2)nc2ccccc12 (centres unmarked) [Example 23]
Solution: 75

Problem: Input O=C(NCC(c1ccccc1)c1ccccc1)C(=O)C(Cc1ccccc1)NC(=O)c1cc(C#Cc2ccccc2)nc2ccccc12 (centres unmarked) [Example 44]
Solution: 85

====

system: Recombinant human calpain I (Homo sapiens)
Construct: made in house
assayDetails: Inhibition of calpain I (Succ-Leu-Tyr-MNA hydrolysis)
Type: biochemical
conditionParameters: Tables 2-4; pH 7.5
reportedProperty: log10(IC50) (log10 of the value in µM)
Record value = log10 of IC50 given in µM.

Record excerpt, results attached:
1) CCCCCCOCCOCCOCCNC(=O)C(=O)C(Cc1ccccc1)NC(=O)c1cc(C#Cc2ccccc2)nc2ccccc12 (stereo not shown) [Example 9]
-0.64
2) O=C(NOCc1ccccc1)C(=O)C(Cc1ccccc1)NC(=O)c1cc(C#Cc2ccccc2)nc2ccccc12 (stereo not shown) [Example 104]
-1.22
3) COC(CNC(=O)C(=O)C(Cc1ccccc1)NC(=O)c1cc(C#Cc2ccccc2)nc2ccccc12)OC (stereo not shown) [Example 7]
-0.96
4) O=C(NCCNS(=O)(=O)c1cccs1)C(=O)C(Cc1ccccc1)NC(=O)c1cc(C#Cc2ccccc2)nc2ccccc12 (stereo not shown) [Example 90]
-1.12
5) O=C(NCCNS(=O)(=O)c1ccc(-c2ccccn2)s1)C(=O)[C@H](Cc1ccccc1)NC(=O)c1cc(Cl)nc2ccccc12 [Example 144]
-1.85
6) CCONC(=O)C(=O)C(Cc1ccccc1)NC(=O)c1cc(C#Cc2ccccc2)nc2ccccc12 (stereo not shown) [Example 103]
-1.19

Please examine the following record next.
Problem: Please report the recorded log10(IC50) for O=C(NCCNS(=O)(=O)c1ccc(-c2ccccn2)s1)C(=O)C(Cc1ccccc1)NC(=O)c1cc(-c2cccs2)nc2ccccc12 (stereo not shown) [Example 146] .
Solution: -1.07

====

The following compounds have recorded IC50 on α-chymotrypsin (Bos taurus, UniProt P00766).
Return type: number; implicit unit µM.

1) O=C(NCCNS(=O)(=O)c1ccc([N+](=O)[O-])cc1)C(=O)C(Cc1ccccc1)NC(=O)c1cc(C#Cc2ccccc2)nc2ccccc12 (single isomer, unassigned) [Example 84]
0.014

Please examine the following record next.
Problem: Please report the recorded IC50 for CCONC(=O)C(=O)C(Cc1ccccc1)NC(=O)c1cc(C#Cc2ccccc2)nc2ccccc12 (centres unmarked) [Example 103] .
Solution: 0.38

====

system: Recombinant human calpain I (Homo sapiens, UniProt P07384)
Construct: made in house
assayDetails: Inhibition of calpain I (Succ-Leu-Tyr-MNA hydrolysis)
Assay type: biochemical
conditionParameters: Tables 2-4; pH 7.5
Each entry below carries its recorded pIC50.
The value called pIC50 is obtained by taking minus log10 of the concentration in mol/L.

Record excerpt, results attached:
1. O=C(NCCCCc1ccccc1)C(=O)C(Cc1ccccc1)NC(=O)c1cc(C#Cc2ccccc2)nc2ccccc12 (centres unmarked)
6.64
2. O=C(NCCNS(=O)(=O)c1ccccc1)C(=O)C(Cc1ccccc1)NC(=O)c1cc(CCc2ccccc2)nc2ccccc12 (centres unmarked)
7.80
3. COc1ccc2[nH]cc(CCNC(=O)C(=O)C(Cc3ccccc3)NC(=O)c3cc(C#Cc4ccccc4)nc4ccccc34)c2c1 (centres unmarked)
6.80
4. CS(=O)(=O)NCCNC(=O)C(=O)C(Cc1ccccc1)NC(=O)c1cc(C#Cc2ccccc2)nc2ccccc12 (centres unmarked)
6.74

Please examine the following record next.
Problem: Please report the recorded pIC50 for O=C(NCCNS(=O)(=O)c1ccc(-c2ccccn2)s1)C(=O)C(Cc1ccccc1)NC(=O)c1cc(C2CC2)nc2ccccc12 (centres unmarked) .
Solution: 7.15

====

Each entry below carries its recorded pIC50.
system: Recombinant human calpain I (Homo sapiens, UniProt P07384)
Construct: made in house
assayDetails: Inhibition of calpain I (Succ-Leu-Tyr-MNA hydrolysis)
Assay type: biochemical
conditionParameters: Tables 2-4; pH 7.5
The value called pIC50 is obtained by taking minus log10 of the concentration in mol/L.

1. O=C(NCCNS(=O)(=O)Cc1ccccc1)C(=O)C(Cc1ccccc1)NC(=O)c1cc(C#Cc2ccccc2)nc2ccccc12 (stereo not shown)
7.03
2. O=C(NCCCNC(=O)C(=O)C(Cc1ccccc1)NC(=O)c1cc(C#Cc2ccccc2)nc2ccccc12)Nc1ccccc1 (stereo not shown)
6.90
3. O=C(NCCNC(=O)C(=O)C(Cc1ccccc1)NC(=O)c1cc(C#Cc2ccccc2)nc2ccccc12)Nc1ccccc1 (stereo not shown)
7.17

Problem: Look up pIC50 with Recombinant human calpain I (Homo sapiens, UniProt P07384) for this compound: O=C(NCCNS(=O)(=O)c1cccc2cccnc12)C(=O)C(Cc1ccccc1)NC(=O)c1cc(C#Cc2ccccc2)nc2ccccc12 (stereo not shown)
Solution: 6.89

====

Each entry below carries its recorded inhibition at 10 µM.
system: Recombinant human calpain I (Homo sapiens, UniProt P07384)
Construct: made in house
assayDetails: Inhibition of calpain I (Succ-Leu-Tyr-MNA hydrolysis)
Type: biochemical
conditionParameters: Tables 2-4; values in parentheses; at 10,000 nM
# include the unit after the value

Record excerpt, results attached:
1) O=C(NC1CCCCC1O)C(=O)C(Cc1ccccc1)NC(=O)c1cc(C#Cc2ccccc2)nc2ccccc12 (stereo not drawn)
61%
2) CC(C)CC(NC(=O)c1cc(C#Cc2ccccc2)nc2ccccc12)C(=O)C(=O)NCCNC(=O)OCc1ccccc1 (stereo not drawn)
100%
3) O=C(NCC(F)(F)F)C(=O)C(Cc1ccccc1)NC(=O)c1cc(C#Cc2ccccc2)nc2ccccc12 (stereo not drawn)
98%
4) CC(C)CC(NC(=O)c1cc(C#Cc2ccccc2)nc2ccccc12)C(=O)C(=O)NCCCNS(=O)(=O)c1ccccc1 (stereo not drawn)
80%
5) O=C(NC1CCCCC1)C(=O)C(Cc1ccccc1)NC(=O)c1cc(C#Cc2ccccc2)nc2ccccc12 (stereo not drawn)
85%

Problem: Look up inhibition at 10 µM with Recombinant human calpain I (Homo sapiens, UniProt P07384) for this compound: CC(C)(C)OC(=O)NCCCNC(=O)C(=O)C(Cc1ccccc1)NC(=O)c1cc(C#Cc2ccccc2)nc2ccccc12 (stereo not drawn)
Solution: 100%

====

system: Recombinant human calpain I (Homo sapiens, UniProt P07384)
Construct: made in house
assayDetails: Inhibition of calpain I (Succ-Leu-Tyr-MNA hydrolysis)
Assay type: biochemical
conditionParameters: Tables 2-4; pH 7.5
reportedProperty: pIC50
The value called pIC50 is obtained by taking minus log10 of the concentration in mol/L.

Record excerpt, results attached:
1. O=C(NCc1ccc2c(c1)OCO2)C(=O)C(Cc1ccccc1)NC(=O)c1cc(C#Cc2ccccc2)nc2ccccc12 (stereo not shown) [Example 33]
6.41
2. COCCNC(=O)C(=O)C(Cc1ccccc1)NC(=O)c1cc(C#Cc2ccccc2)nc2ccccc12 (stereo not shown) [Example 11]
6.32
3. CN(C)S(=O)(=O)NCCNC(=O)C(=O)C(Cc1ccccc1)NC(=O)c1cc(C#Cc2ccccc2)nc2ccccc12 (stereo not shown) [Example 94]
6.85
4. CCCCNC(=O)C(=O)C(Cc1ccccc1)NC(=O)c1cc(C=Cc2ccccc2)nc2ccccc12 (stereo not shown) [Example 130]
6.98
5. O=C(NCCNS(=O)(=O)c1cccnc1)C(=O)C(Cc1ccccc1)NC(=O)c1cc(Cl)nc2ccccc12 (single isomer, unassigned) [Example 141]
7.06
6. O=C(NOCCNS(=O)(=O)c1ccccc1)C(=O)C(Cc1ccccc1)NC(=O)c1cc(C#Cc2ccccc2)nc2ccccc12 (stereo not shown) [Example 105]
6.89

Please examine the following record next.
Problem: Please report the recorded pIC50 for O=C(NCCNS(=O)(=O)c1cccc2nsnc12)C(=O)C(Cc1ccccc1)NC(=O)c1cc(C#Cc2ccccc2)nc2ccccc12 (stereo not shown) [Example 71] .
Solution: 7.05
